The measured values listed here are drawn from ChEMBL document CHEMBL3988442.

Each entry below carries its recorded Percent Effect.
# System: Wolbachia pipientis
# protocol_notes: Anti-Wolbachia Cell-Based Screen
# Assay type: functional
# Parameters: scale not given: in the data most compounds retested in dose-response had high values
# measurement_setup: 5 µM
Out of some 48,000 compounds screened, about 13,000 (27%) showed an effect of 50% or more. This is one part of the list.
Number in %, nothing else.

Wolbachia pipientis / Percent Effect / `COc1ccccc1CN1C[C@@H]2CN(C(C)=O)CCO[C@@H]2C1.O=C(O)C(F)(F)F` : value?
111.4

====

# Test system: Wolbachia pipientis
# protocol_notes: Anti-Wolbachia Cell-Based Screen
# Format: functional
# Design: scale not given: in the data most compounds retested in dose-response had high values
# measurement_setup: 5 µM
The campaign covered roughly 48,000 compounds. About 13,000 (27%) showed an effect of 50% or more. The list shows a part of the results.
quantity_name: Percent Effect (%)
Report the figure in % without appending any unit label.

Below are worked cases with known answers.
>>> numeric_value("COC(=O)c1cc(CN2CCN(c3nc(C)cnc3C)CC2)ccc1O")
-22.17
>>> numeric_value("CC(C)CN1CCOC[C@H](Oc2ccc(S(C)(=O)=O)cc2)C1")
2.76
>>> numeric_value("Cn1nnc2c1C(COCC1CC1)CN(C(=O)C1=CCCC1)C2 (stereo unspecified)")
-1.372
>>> numeric_value("CCn1c(C)cc(C(=O)NCc2ccc(CS(C)(=O)=O)cc2)c1C")
4.177
>>> numeric_value("CCCS(=O)(=O)N1CCC2(CC1)CN(c1ccccn1)CCO2.O=C(O)C(F)(F)F")
3.761

Percent Effect lookup needed for `CC(C)(C)CN1CCN2C(=O)N(C3CCCCC3)C[C@H]2C1` , thanks.
-7.444

Need Percent Effect, item COc1ccc(S(=O)(=O)NCCC(O)c2ccccc2)c(C)c1 (stereo unspecified)
8.858

Return reported Percent Effect; argument: `CC(C)(C)n1nc(C2CC2)cc1C(=O)NCC1(C(N)=O)CCOCC1`
3.596

// lookup Percent Effect for `Cn1nc(C(=O)NC2CC2)cc1NC(=O)C1CC1`
-11.77

Give its Percent Effect value. Item: CC(C)c1cc(C(=O)NCC(O)C2CCOCC2)nn1C(C)(C)C (stereo unspecified)
-4.207

Could you share which Percent Effect value was measured for `CC(C)(C)n1nc(C(=O)NC2CCN(CC(N)=O)CC2)cc1C1CC1` ?
128.2
